Here the recorded koff is given for each entry.
# system_name: T1, human serum albumin (human, UniProt P02768 25-609)
# T1 construct: also called HSA
# assay_details: Octet HTX (ForteBio), HCAb on AHC sensor, 1:1 fit
# unit: s⁻¹ | format: bare number

The following binders have reported results that may help.
- binder: "CNG-HSA-114 (VHH) VHH: KVQLVESGGGLVQPGNSLRLSCAASGFTFSSFGMSWVRQAPGKGLEWVSSISGSGSDTLTADSVKGRFTISRDNSKNTLYLQMNSLRAEDTAVYYCTIGGSLVRSSQGTLVTVSS"
  observed_measurement: 0.00221
- binder: "CNG-HSA-104 (VHH) VHH: KVQLLESGGGLVQPGGSLRLSCAASGFTFHSFGMSWVRQAPGKGLEWVSSISGSGSDTLYADSVKGRFTISRDNSKNTLYLQMNSLRPEDTAVYYCTIGGSLSRSSQGTLVTVSS"
  observed_measurement: 0.00112
- binder: "CNG-HSA-107 (VHH) VHH: KVQLLESGGGLVQPGGSLRLSCAASGFTFSSFGMSWVRQAPGKGLEWVSSISGSGSDTLYADSVRGRFTISRDNSKNTLYLQMNSLRAEDTAVYYCSIGGSLIRSSQGTLVTVSS"
  observed_measurement: 0.00238
- binder: "CNG-HSA-105 (VHH) VHH: EVQLLESGGGLVQPGGSLRLSCAASGFVFSSFGMSWVRQAPGKGLEWVSSISGSGSDTLYADSVKGRFTISRDNSKNTLYLQMNSLRPEDTAVYYCTIGGSLSRSSQGTLVTVSS"
  observed_measurement: 0.002
- binder: "CNG-HSA-103 (VHH) VHH: KVQLVESGGGLVQPGGSLRLSCAASGFTFSSFGMTWVRQAPGKGLEWVSSISGSGSDTLYADSVRGRFTISRDNSKNTLYLQMNSLRPEDTAVYYCTIGGSLSPSSQGTLVTVSS"
  observed_measurement: 0.000742
- binder: "CNG-HSA-111 (VHH) VHH: KVQLVESGGGLVQPGGSLRLSCAASGFTFSSFGMSWVRQAPGKGLEWVSSISGSGSDTLYADSVEGRFTISRDNSKNTLYLQMNSLRAEDTAVYYCTIGGSLKQSSQGTLVTVSS"
  observed_measurement: 0.00117
- binder: "CNG-HSA-120 (VHH) VHH: KVQLVESGGGLVQPGGSLRLSCAASGFTFSSFGMSWVRQAPGKGPEWVSSISGSGSDTLYADSVKGRFTISRDNSKNTLYLQMNSLRPEDTAVYYCTIGGSLKQSSQGTLVTVSS"
  observed_measurement: 0.000507

# ---- query binder ----
Input: Please report the recorded koff for CNG-HSA-110 (VHH) VHH: KVQLVESGGGLVQPGNSLRLSCAASGFTFSSFGMSWVRQAPGKGLEWVSSISGSGGDTLYADSAKGRFTISRDNSKNTLYLQMNSLRPEDTAVYYCTIGGSLSRSSQGTLVTVSS .
Output: 0.000893

Data origin, for the record: patent US20230037815A1
